Recorded values, source PubChem BioAssay (NCI).

Assay: NCI Yeast Anticancer Drug Screen. Data for the rad50 strain (AID 155);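 also: 0% = growth of vehicle-only cultures of the same strain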
Settings: S. cerevisiae rad50 strain growth inhibition; at 100.0 µM
The panel holds about 79,000 compounds, 15% with a hit somewhere; the sample as a whole holds those more often. Active and inactive are the calls of the source. Rule as the data show it: active = growth inhibition above about 70%; inactive = the rest.
Outcome codes: Yes (active), No (inactive)

compound	classAssignment
Cc1cccc(/C=N/NC(=S)N2CCCC2)n1	Yes
COC1=C(OC)C(=O)C(Sc2ccc3ccccc3c2)=CC1=O	Yes
COc1ccc(/C=C2\NC(=S)N(/C=C3\C(=O)Oc4ccccc4C3=O)C2=O)cc1	No
COC(=O)Oc1cc(Cl)c(Cl)cc1Cl	No
CC(C)(C)[Si](C)(C)OCC1CCC(n2cnc3c(NC(=O)c4ccccc4)ncnc32)O1 (centres undefined)	No
CCN(CC)Cc1cc(Nc2c3ccccc3nc3c2[nH]c2ccccc23)cc(CN(CC)CC)c1O	No
CCn1c(O)c(C=Nc2ccccc2)s/c1=N/Nc1nc(-c2ccccc2)cs1	No
Oc1ccc(O)c(Cc2ccccc2)c1	Yes
CCc1c(Cl)c(C)cc(O)c1Cl	Yes
Cn1c(=O)c2c(nc(N)n2C2OC(CO)C(O)C2O)n(C)c1=O (centres undefined)	No
Nc1ncc(-c2ccc(Br)cc2)s1	Yes
CCCCCCCCCCCCNC(C)=O	Yes
O=C1c2ccccc2C(=O)c2cc(CCl)ccc21	No
COc1ccc2c(c1)n([O-])c1ccccc1[n+]2=O	Yes
Cc1cccc2c1nc1ccc(Cl)cc1[n+]2C	Yes
CCOC(=O)COc1c(OC)cc(C2C3=C(COC3=O)Oc3cc4c(cc32)OCO4)cc1OC (centres undefined)	No
O=C1C(=O)c2ccccc2C(O)=C1C(C1=C(O)c2ccccc2C(=O)C1=O)c1ccc(Cl)cc1	No
CCCCCCCCCCCC1N=C(N)NC(CCCO)=C1C(=O)OC (centres undefined)	Yes
O=C1NC(SSC2=NNC3(C(=O)N2)c2ccccc2-c2ccccc23)=NNC12c1ccccc1-c1ccccc12	No
C[C@]12CC[C@H](O)CC1=CC[C@@H]1C2CC[C@]2(C)C(=O)NC(=O)CC12 (some centres undefined)	Yes
O=[N+]([O-])c1cc(S(=O)(=O)Nc2ccccc2)ccc1Nc1ccccc1	Yes
O=C(O)CNC(=S)Nc1ccccc1	Yes
O=C1C=C(Cl)C(=O)N1c1cccc(Cl)c1	Yes
O=C(NNc1ccccc1)C(O)C(O)C(O)C(O)C(O)CO (centres undefined)	Yes
NCCNCCNc1ccc(NCCNCCN)c2c1C(=O)c1c(O)ccc(O)c1C2=O	Yes
CC(=O)OC1CCC2(C)C(=CC(C3C=C4CC(OC(C)=O)CCC4(C)C4=C3C3CC5OC6(CCC(C)CO6)C(C)C5C3(C)CC4)C3=C2CCC2(C)C3CC3OC4(CCC(C)CO4)C(C)C32)C1 (centres undefined)	No
O=C(O)c1cc2ccc(Cl)cc2c(O)c1C1=CCCCC1	Yes
CN(C)c1ccc2c(SCC(=O)OCC(=O)[C@@]3(O)CC[C@H]4[C@@H]5CCC6=CC(=O)C=C[C@]6(C)[C@H]5C(=O)C[C@@]43C)c3ccc(N(C)C)cc3nc2c1	Yes
CC[N+](CC)(CC)c1ccccc1	No
CSc1nc(C)c(CCOC(C)=O)c(N=P(c2ccccc2)(c2ccccc2)c2ccccc2)n1	Yes
CC(=O)OCC1OC2OC(=O)NC2C(OC(C)=O)C1OC(C)=O (centres undefined)	No
O/N=C\c1c(O)ccc2ccccc12	Yes
CC(=O)SC(C[N+](=O)[O-])c1ccccc1 (centres undefined)	Yes
COc1cc2cc3c4cc(OC)c(OC)cc4cc[n+]3c(C)c2cc1OC	No
CCN(CC)CCNc1ccc([N+](=O)[O-])c2nc3ccccc3c(N)c12	Yes
COc1ccc(C(=O)C(CN(C)C)CN(C)C)cc1	No
C(=Nc1ccc(-c2cc(-c3ccccc3)nc3ccc4ccccc4c23)cc1)c1ccccc1	No
COC(=O)Nc1cn2ccc(C(Cl)=C(Cl)Cl)cc2n1	No
COC1=C(N)C(=O)c2nc(-c3nc(C(=O)O)c(C)c(-c4ccc(OC)c(OC)c4O)c3N)ccc2C1=O	Yes
Cc1ccc([N+]2=NC(c3ccccc3)=NN(c3ccccc3)C2)cc1	Yes
COc1cc(C2SCC(=O)N2c2ccc(-c3ccc(-n4c(-c5ccccc5)nc5ccccc5c4=O)cc3)cc2)ccc1O (centres undefined)	No
COc1ccc(C(=O)Oc2ccccc2Br)cc1	No
O=C1Nc2ccccc2/C1=C/c1ccccc1	Yes
CNC(=O)OCc1c(COC(=O)NC)c2n(c1C)-c1ccc(OC)cc1CCC2	Yes

###

Experiment: NCI Yeast Anticancer Drug Screen. Data for the mec2-1 strain (AID 157)
Details: S. cerevisiae mec2-1 strain, at 50.0 µM, hits give high values
The panel holds about 79,000 compounds, 15% with a hit somewhere; the sample as a whole holds those more often.
Entry flag: true if growth inhibition reaches 80%; false if it does not.

compound	classAssignment
COC1=C(OC)C(=O)C(Sc2ccc3ccccc3c2)=CC1=O	true
CCOC(=O)C#Cc1ccc([N+](=O)[O-])cc1	true
CCC1(OC(=O)CN2CCN(CCO)CC2)C(=O)OCc2c1cc1n(c2=O)Cc2cc3ccccc3nc2-1 (stereo unspecified)	false
O=C1Nc2ccc(Br)cc2C1=Nc1ccc2c(c1)OCO2	false
C/C=C/SC(=Nc1ccccc1)Nc1ccccc1	false
CCCCCCSc1ncnc2[nH]ncc12	false

###

Experiment: NCI Yeast Anticancer Drug Screen. Data for the bub3 strain (AID 167)
Settings: S. cerevisiae bub3 mutant strain, at 50.0 µM
The panel holds about 79,000 compounds, 15% with a hit somewhere; the sample as a whole holds those more often. The source made the active and inactive calls. No stated cut-off is given here; in the data, active means growth inhibition above about 70%; inactive means the rest.
Labels: 1 (yes) = active, 0 (no) = inactive

compound	classAssignment
COc1nc2c(c(=O)n1C)N=C(c1ccccc1)[C@H](C(CC(=O)c1ccccc1)c1ccccc1)C(c1ccccc1)N2 (stereo partly specified)	0 (no)
Cn1c(=O)c2c(nc(N)n2C2OC(CO)C(O)C2O)n(C)c1=O (stereo unspecified)	1 (yes)
CCN(CC)CCNc1ccc([N+](=O)[O-])c2nc3ccccc3c(N)c12	0 (no)
CCOC(=O)[C@H]1Nc2ccc(OC)cc2C2c3ccccc3CC21 (stereo partly specified)	0 (no)
CC(=O)Nc1ccc(/C=C/[N+](=O)[O-])cc1	0 (no)
CCCCN(CCCC)C(=O)/C=C/c1ccccc1	1 (yes)
CCCCCCCCCCCCCCCCCC(=O)NCCCN(C)C	1 (yes)
C=C(C(=C)n1nnc(C(=O)OC)c1C(=O)OC)n1nnc(C(=O)OC)c1C(=O)OC	0 (no)
COc1ccc(/C=C2\NC(=S)N(/C=C3\C(=O)Oc4ccccc4C3=O)C2=O)cc1	1 (yes)
CNC(=O)OCc1c(COC(=O)NC)c(-c2ccc(Cl)c(Cl)c2)n2c1SCC2	0 (no)
Nc1ncc(-c2ccc(Br)cc2)s1	1 (yes)

###

Test: NCI Yeast Anticancer Drug Screen. Data for the rad50 strain (AID 155);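 also: 0% = growth of vehicle-only cultures of the same strain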
Settings: S. cerevisiae rad50 strain growth inhibition; at 100.0 µM
This is part of a sample that, as a whole, favours compounds with a hit. Of some 79,000 tested, about 15% had one in any assay. Activity calls are given as the source filed them. Cut-off read from the data, not from the text of the source: active = growth inhibition above about 70%; inactive = the rest.
Classes used: 1.0 for active, 0.0 for inactive

molecule	classAssignment
CCCC(O)C1CC(C(C)C)CCC1C (centres undefined)	0.0
CCOC1(c2cccc([N+](=O)[O-])c2)c2ccccc2Oc2ccccc21	0.0
CCC1(OC(=O)CN2CCN(CCO)CC2)C(=O)OCc2c1cc1n(c2=O)Cc2cc3ccccc3nc2-1 (centres undefined)	1.0
COC(=O)C1=C(C(=O)OC)C(C(=O)OC)C(C(=O)OC)C(C(=O)OC)(C(=O)OC)C(C(=O)OC)=C1C(=O)OC (centres undefined)	0.0
CS(=O)(=O)OCCN(CCOS(C)(=O)=O)c1ccc(C=Nc2ccc(-c3csc(COc4ccccc4)n3)cc2)cc1	1.0
Cc1ccc(S/C(=C\C(=O)O)c2ccccc2)cc1	0.0
CC(=O)OC1CC2C(C)(C)C(=O)C=C[C@]2(C)C2CCC3(C)C(=CCC3[C@H](CO)C[C@H](O)C(=O)C(C)(C)O)[C@]12C (some centres undefined)	0.0
NC1=NNC2(C(N)=N1)c1ccccc1-c1ccccc12	1.0
C[C@@](O)(/C=C/[C@H]1CC=CC(=O)O1)[C@@H](C[C@@H](O)\C=C/C=C\C=C\CO)OP(=O)(O)O	1.0

###

Test: NCI Yeast Anticancer Drug Screen. Data for the mlh1 rad18 strain (AID 175)
Details: S. cerevisiae mlh1 rad18 strain growth inhibition; at 5.0 µM (retest, dose inferred, filed as 0.5); hits give high values
This is part of a sample that, as a whole, favours compounds with a hit. Of some 79,000 tested, about 15% had one in any assay.

molecule	growth inhibition (%)
Nc1ccc2c(c1)C(=O)c1ccc(F)cc1-2	15
COc1cc(/C=N/Nc2nnc3c4ccccc4c4ncccc4c3n2)cc(OC)c1OC	-25
CCOC(=O)c1ccc(NC(=O)O/N=C(/Cl)C(C)C)cc1	-7
CCCCCCSc1ncnc2[nH]ncc12	-1
Cc1ccc2c(c1)C1(SC(C)C(=O)N1c1ccc(Cl)cc1)C(=O)N2 (centres undefined)	51
COc1ccc2[nH]cc([C@@H]3C4CCC(C4)[C@H]3NCc3cccc(CN[C@H]4C5CCC(C5)[C@@H]4c4c[nH]c5ccc(OC)cc45)c3)c2c1	2
CC[n+]1oc(C(=O)c2ccc(Cl)cc2)c(-c2ccccc2)c1-c1ccccc1.[Cl][Fe]([Cl])([Cl])[Cl]	27
Cc1cc2cc3cc(C)c(N)cc3nc2cc1N	94
O=C1c2ccccc2C(=O)c2cc(CCl)ccc21	29
O=C(O)CCCC1CCCc2c1ccc1ccccc21 (centres undefined)	4
CC1CC(C)(C)CC(OCCN2CCCCC2)(c2ccccc2)C1 (centres undefined)	7
CCc1c[n+]([O-])c(C)cc1[N+](=O)[O-]	58
CN(C)C=NC1CCC(C(C)(C)C)CC1 (centres undefined)	-32
Clc1ccc2c(c1)N(CCCN1CCCC13CCCCC3)c1ccccc1S2	-6
CN(C)/C=C/c1nnc([N+](=O)[O-])s1	-115
C[CH2][Sn]([CH2]C)([O]C(=O)C(N)Cc1ccccc1)[O]C(=O)C(N)Cc1ccccc1 (centres undefined)	17
Cc1nc(-c2cc3cc([N+](=O)[O-])ccc3oc2=O)cs1	16
CCn1c(O)c(C=Nc2ccccc2)s/c1=N/Nc1nc(-c2ccccc2)cs1	-10
Cc1cccc[n+]1C1CCc2c(ccc3ccccc23)C1=O (centres undefined)	2
O=[n+]1c2ccccc2n([O-])c2cc(Br)ccc21	87
COc1cccc(/C=N/C(/N=C/c2cccc(OC)c2O)c2cccc(OC)c2O)c1O	4
Cc1cccc2c1nc1ccc(Cl)cc1[n+]2C	25
Nc1ccn(C2OC(COP(=O)(O)O)C(O)C2O)c(=O)n1 (centres undefined)	13
COc1cc(/C=C2\NC(=O)N(/C=C3\C(=O)Oc4ccccc4C3=O)C2=O)ccc1O	4
COc1cccc2c1C(=O)c1c(O)c3c(c(O)c1C2=O)C[C@@](O)(C(C)=O)C[C@@H]3OC1CC(OC(C)=O)C(OC(C)=O)C(C)O1 (some centres undefined)	23
CC(C)CN(CC(C)C)C(=O)c1ccc(Cl)c(Cl)c1	-17
CN1CCN(C(=O)/C=C/C(=O)c2ccccc2)CC1	-5
CCOc1ccccc1N=Cc1c2ccccc2cc2ccccc12	38
CCc1ccc2c(c1)N(CC(C)CN(C)C)c1ccccc1S2 (centres undefined)	-9
Cc1c2ccnc(C(=O)NCCN(C)C)c2cc2c3cc(O)ccc3n(C)c12	0
O=[N+]([O-])/C=C/c1cc(Cl)c(/C=C/[N+](=O)[O-])cc1Cl	16
OCC(CO)C(c1cccc2ccccc12)c1cccc2ccccc12	7
O=C(NCCCNCCN1C(=O)c2cccc3cc([N+](=O)[O-])cc(c23)C1=O)c1cc(-c2ccccc2)nc2ccccc12	-1
O=Cc1ccc2c(c1)C(=O)c1ccccc1C2=O	10
Cc1cc(C(C)(C)CC(C)(C)C)ccc1O	26
C=C1CC(CCCl)(c2ccccc2)OC1=O (centres undefined)	22
O=C1C=C(c2ccccc2)OC1(c1ccccc1)N1CCOCC1 (centres undefined)	-17
CC(=O)OCC1OC2OC(=O)NC2C(OC(C)=O)C1OC(C)=O (centres undefined)	-9
O=[N+]([O-])c1ccc(N/N=C/Cc2ccccc2)c([N+](=O)[O-])c1	1
CCN(CC)CCN(C)CCc1ccc(Br)cc1	-29
CC1=C(C(=O)NCc2ccccc2)C(c2ccccc2)C(C(=O)NCc2ccccc2)=C(C)N1	4
CCCC/C([O-])=C1/C(=O)N(c2ccccc2)N=C1C.CCCC/C([O-])=C1/C(=O)N(c2ccccc2)N=C1C.[Cu+2]	6
CNC(=O)OCc1c(COC(=O)NC)c2n(c1C)-c1ccc(OC)cc1CCC2	17
O=C(CC(C(=O)O)N1CCOCC1)c1ccccc1 (centres undefined)	10
